A collection of molecules and their measured inhibition
# Protocol notes: wild-type TIM10 yeast growth inhibition – luminescence, uHTS, counter-screen for tim10-1 yeast inhibitor project, primary screen (AID 463195);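 also: wild-type TIM10 isogenic control strain grown at permissive 25 °C; 0% = DMSO yeast wells and 100% = minimal medium wells without yeast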
# Particulars: S. cerevisiae TIM10 strain growth, BacTiter-Glo luminescence, 24 h; at 10 µM; hits give high values
Out of some 330,000 compounds screened, about 4,600 (1.4%) were called active. This is one part of a sample in which actives are shown more often than they occur.
Record the value in %, omitting the unit from your answer.

>>> df
                                   molecule  endpoint_unit  endpoint_value
0  COc1ccc([N+](=O)[O-])cc1-c1nc2ccccc2nc1-c1ccccc1              %            12.2
1  Cc1ccc(-c2ccnc3nc(Sc4ncc(C(F)(F)F)cc4Cl)nn23)cc1              %            42.2
2  O=[N+]([O-])c1ccc2c(c1)Nc1nc3ccccc3nc1N2              %            79.8
3  COCCN1C(=O)c2oc3c(C)cc(C)cc3c(=O)c2C1c1cccc(O)c1 (stereo not drawn)              %           -2.19
4      O=C(Nc1ccc(NC(=O)c2cccs2)cn1)c1ccco1              %            49.1

Now consider the entry below.
inhibition lookup needed for O=[N+]([O-])c1ccc2nc(-c3ccccn3)[nH]c2c1 , thanks.
13.4
